# TARGET_OR_TEST_SYSTEM: T1, hFc tagged monkey LAG-3 protein (cLAG-3-hFc protein) (monkey; human)
# T1 construct: Made in HEK293 cells; also called monkey LAG-3 extracellular domain protein; not shown: human IgG Fc fragment (hFc) of the pCpC vector
# T1 chain: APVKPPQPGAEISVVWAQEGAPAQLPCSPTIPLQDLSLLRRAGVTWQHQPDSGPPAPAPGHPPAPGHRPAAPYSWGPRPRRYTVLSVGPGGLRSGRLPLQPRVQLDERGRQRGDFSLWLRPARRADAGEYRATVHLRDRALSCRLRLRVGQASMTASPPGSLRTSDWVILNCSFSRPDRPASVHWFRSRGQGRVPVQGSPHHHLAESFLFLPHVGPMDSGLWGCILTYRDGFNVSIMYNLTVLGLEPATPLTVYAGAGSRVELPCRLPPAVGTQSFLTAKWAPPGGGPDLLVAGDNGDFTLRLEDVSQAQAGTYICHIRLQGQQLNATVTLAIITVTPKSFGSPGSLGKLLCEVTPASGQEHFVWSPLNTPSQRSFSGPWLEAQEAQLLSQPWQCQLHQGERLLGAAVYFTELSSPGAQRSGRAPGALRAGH
# PROCEDURE_SUMMARY: ELISA, cLAG-3-hFc coated; 0.0000 nM
Items are presented alongside their recorded OD450.
Give your result in OD450 as a bare value.

BINDER | MEASUREMENT_NAME | UNIT_STRING | OBSERVED_RESULT
405B8H3 (LAG-3 mouse-human chimeric antibody) (antibody, V domains shown, also called mouse-human chimeric antibody 405B8H3) VH: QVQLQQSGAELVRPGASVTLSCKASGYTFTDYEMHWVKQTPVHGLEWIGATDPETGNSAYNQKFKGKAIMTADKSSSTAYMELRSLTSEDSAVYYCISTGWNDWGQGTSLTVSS VL: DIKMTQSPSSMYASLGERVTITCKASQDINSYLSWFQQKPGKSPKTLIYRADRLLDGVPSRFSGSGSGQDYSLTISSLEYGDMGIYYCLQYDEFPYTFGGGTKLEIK | OD450 | OD450 | 0.15

Data request, read-out OD450, for 409B11E12 (LAG-3 mouse-human chimeric antibody) (antibody, V domains shown) VH: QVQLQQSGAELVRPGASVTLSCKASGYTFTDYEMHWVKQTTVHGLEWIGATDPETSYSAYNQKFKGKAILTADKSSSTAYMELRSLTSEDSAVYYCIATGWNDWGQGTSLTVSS VL: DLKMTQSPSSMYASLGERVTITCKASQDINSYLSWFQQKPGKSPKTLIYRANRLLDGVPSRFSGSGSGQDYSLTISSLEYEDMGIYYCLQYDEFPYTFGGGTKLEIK
0.14

Returns the measured OD450 for the input binder. Input: 105F1E10 (LAG-3 mouse-human chimeric antibody) (antibody, V domains shown) VH: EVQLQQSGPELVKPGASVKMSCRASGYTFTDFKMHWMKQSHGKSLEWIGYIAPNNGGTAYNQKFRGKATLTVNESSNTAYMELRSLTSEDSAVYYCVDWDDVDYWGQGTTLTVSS VL: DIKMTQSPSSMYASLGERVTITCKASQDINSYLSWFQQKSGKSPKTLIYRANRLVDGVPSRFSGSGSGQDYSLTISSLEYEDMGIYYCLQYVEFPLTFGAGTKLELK
0.15
